Sourced from patent US20240400675A1

EC50 reference
Target: T1, human CLDN6 (UniProt P56747 1-220)
T1 chain: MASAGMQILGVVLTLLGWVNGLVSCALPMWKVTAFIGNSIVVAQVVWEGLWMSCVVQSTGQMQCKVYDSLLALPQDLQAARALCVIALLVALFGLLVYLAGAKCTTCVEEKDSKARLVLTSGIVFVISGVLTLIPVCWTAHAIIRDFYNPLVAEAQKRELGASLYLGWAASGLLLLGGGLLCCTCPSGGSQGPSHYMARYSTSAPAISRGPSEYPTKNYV
Test: HEK293E cell binding; avid
Provide only the numeric value, understood in µg/mL.

Examples with answers:
binder	units-symbol	EC50
XENP35050 H2_L1.7 (antibody, V domains shown) VH: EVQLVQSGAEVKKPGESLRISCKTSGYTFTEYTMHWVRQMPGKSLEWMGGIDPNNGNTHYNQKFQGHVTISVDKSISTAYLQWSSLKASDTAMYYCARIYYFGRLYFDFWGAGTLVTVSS VL: DIQMTQSPSSLSASVGDRVTITCQASEDIYSRLAWYQQKPGKVPKLLISGATSLETGVPSRFSGSGSGKDYTFTISSLQPEDIATYYCQQYWSSPLTFGGGTKVEIKR	µg/mL	2.22
XENP35047 H2_L1.4 (antibody, V domains shown) VH: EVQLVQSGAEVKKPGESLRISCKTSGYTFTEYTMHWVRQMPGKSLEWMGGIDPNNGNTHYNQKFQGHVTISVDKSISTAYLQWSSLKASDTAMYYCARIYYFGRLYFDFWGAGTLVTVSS VL: DIQMTQSPSSLSASVGDRVTITCQASEDVYNRLAWYQQKPGKVPKLLISGATSLETGVPSRFSGSGSGKDYTFTISSLQPEDIATYYCQQYWSSPLTFGGGTKVEIKR	µg/mL	0.795
XENP35087 H1.3_L1 (antibody, V domains shown) VH: QVQLVQSGAEVKKPGASVKVSCKTSGYTFTEYTMHWVRQAPGQSLEWMGGIDSNNGNTHYNQKFQGRVTITVDKSASTAYMELSSLRSEDTAVYYCARIYYFGRLYFDFWGAGTLVTVSS VL: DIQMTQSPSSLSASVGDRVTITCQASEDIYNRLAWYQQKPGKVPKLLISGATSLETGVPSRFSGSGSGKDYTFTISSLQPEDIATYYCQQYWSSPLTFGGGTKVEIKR	µg/mL	1.2
XENP35093 (having C6-30 H1.9_L1) (antibody, V domains shown) VH: QVQLVQSGAEVKKPGASVKVSCKTSGYTFTEYTMHWVRQAPGQSLEWMGGIDPNNANTHYNQKFQGRVTITVDKSASTAYMELSSLRSEDTAVYYCARIYYFGRLYFDFWGAGTLVTVSS VL: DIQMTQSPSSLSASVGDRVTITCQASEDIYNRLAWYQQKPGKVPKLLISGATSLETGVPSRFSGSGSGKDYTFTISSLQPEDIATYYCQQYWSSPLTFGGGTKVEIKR	µg/mL	0.978
XENP35064 H2_L1.21 (antibody, V domains shown) VH: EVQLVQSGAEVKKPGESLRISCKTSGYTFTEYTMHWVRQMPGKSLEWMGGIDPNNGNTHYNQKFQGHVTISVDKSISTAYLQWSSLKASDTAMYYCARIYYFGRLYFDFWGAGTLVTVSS VL: DIQMTQSPSSLSASVGDRVTITCQASEDIYNRLAWYQQKPGKVPKLLISGATNLETGVPSRFSGSGSGKDYTFTISSLQPEDIATYYCQQYWSSPLTFGGGTKVEIKR	µg/mL	0.979
XENP35065 H2_L1.22 (antibody, V domains shown) VH: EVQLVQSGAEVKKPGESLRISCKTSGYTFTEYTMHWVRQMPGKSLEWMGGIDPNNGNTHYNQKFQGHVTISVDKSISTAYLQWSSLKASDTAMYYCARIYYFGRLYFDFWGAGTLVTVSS VL: DIQMTQSPSSLSASVGDRVTITCQASEDIYNRLAWYQQKPGKVPKLLISGATQLETGVPSRFSGSGSGKDYTFTISSLQPEDIATYYCQQYWSSPLTFGGGTKVEIKR	µg/mL	1.48
XENP35059 H2_L1.16 (antibody, V domains shown) VH: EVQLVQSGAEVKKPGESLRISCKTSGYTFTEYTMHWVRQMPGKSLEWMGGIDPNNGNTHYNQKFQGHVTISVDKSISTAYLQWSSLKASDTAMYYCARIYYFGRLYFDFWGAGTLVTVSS VL: DIQMTQSPSSLSASVGDRVTITCQASEDIYNRLAWYQQKPGKVPKLLISAATSLETGVPSRFSGSGSGKDYTFTISSLQPEDIATYYCQQYWSSPLTFGGGTKVEIKR	µg/mL	1.28
XENP35088 H1.4_L1 (antibody, V domains shown) VH: QVQLVQSGAEVKKPGASVKVSCKTSGYTFTEYTMHWVRQAPGQSLEWMGGIDANNGNTHYNQKFQGRVTITVDKSASTAYMELSSLRSEDTAVYYCARIYYFGRLYFDFWGAGTLVTVSS VL: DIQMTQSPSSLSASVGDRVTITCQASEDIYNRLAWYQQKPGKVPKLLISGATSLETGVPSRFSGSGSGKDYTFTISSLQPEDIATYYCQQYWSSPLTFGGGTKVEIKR	µg/mL	1.29

(Q) Please look up its EC50: XENP34220, humanized C6-30 H2L1 bivalent mAb (antibody, V domains shown) VH: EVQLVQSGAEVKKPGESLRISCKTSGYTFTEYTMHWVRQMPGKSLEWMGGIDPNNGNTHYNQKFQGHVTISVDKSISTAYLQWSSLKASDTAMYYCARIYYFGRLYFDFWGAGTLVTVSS VL: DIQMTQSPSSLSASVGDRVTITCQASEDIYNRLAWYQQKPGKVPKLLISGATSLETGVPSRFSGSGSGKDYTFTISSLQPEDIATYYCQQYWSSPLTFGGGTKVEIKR
(A) 1.63

(Q) Please look up its EC50: XENP35102 having H2.9_L1 (antibody, V domains shown) VH: EVQLVQSGAEVKKPGESLRISCKTSGYTFTEYTMHWVRQMPGKSLEWMGGIDPNNANTHYNQKFQGHVTISVDKSISTAYLQWSSLKASDTAMYYCARIYYFGRLYFDFWGAGTLVTVSS VL: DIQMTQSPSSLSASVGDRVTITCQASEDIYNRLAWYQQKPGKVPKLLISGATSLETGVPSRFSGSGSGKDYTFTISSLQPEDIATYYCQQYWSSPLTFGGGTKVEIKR
(A) 3.53
